Biological target: GST-tagged ROR gamma ligand binding domain (LBD) (Homo sapiens)
Construct: purchased Invitrogen
Sequence (P51449 269-508 limits assumed): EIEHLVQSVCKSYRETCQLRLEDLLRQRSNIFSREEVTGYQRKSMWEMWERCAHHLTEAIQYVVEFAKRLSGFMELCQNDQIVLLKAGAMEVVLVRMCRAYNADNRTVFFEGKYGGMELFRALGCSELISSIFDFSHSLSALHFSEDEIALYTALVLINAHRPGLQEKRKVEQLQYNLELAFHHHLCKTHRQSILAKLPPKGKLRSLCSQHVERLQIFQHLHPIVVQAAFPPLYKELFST
Test: TR-FRET assay for ROR gamma (LanthaScreen co-activator peptide recruitment)
Type: biochemical
Details: compound 10 μM; TR-FRET ratio 520/495, percent of control
OUTCOME MEASURE: inhibition at 10 µM (%)
Give a bare numeral; the unit % is implied.

Some solved entries appear below for comparison.
> print(dat)
                                   compound  measured
1  CCn1c(C(C)(C)Oc2ccc(Cl)c(F)c2)nc2cc(NC(=O)Cc3ccc(S(=O)(=O)CC)cc3)ccc21 [Example 87]      94.8
2  CCN(C(=O)C(C)(C)Oc1ccc(NC(=O)Cc2ccc(S(=O)(=O)CC)cc2)cc1)c1ccc(Cl)cc1 [Example 127]      75.8
3  CCS(=O)(=O)c1ccc(CC(=O)Nc2ccc(OC3(c4ccc(Cl)cc4Cl)CCOCC3)cc2)cc1 [Example 40]      81.9

Let us move to another entry and its inhibition at 10 µM.
Given the compound CCn1c(C(C)(C)Oc2ccc(Cl)cc2Cl)nc2cc(NC(=O)Cc3ccc(S(=O)(=O)CC)cc3)ccc21 [Example 144] , what is its reported inhibition at 10 µM? 92.5
